Provenance of the data: ChEMBL document CHEMBL1240521

biological target: Tyrosinase (Agaricus bisporus)
Sequence (O42713 whole entry): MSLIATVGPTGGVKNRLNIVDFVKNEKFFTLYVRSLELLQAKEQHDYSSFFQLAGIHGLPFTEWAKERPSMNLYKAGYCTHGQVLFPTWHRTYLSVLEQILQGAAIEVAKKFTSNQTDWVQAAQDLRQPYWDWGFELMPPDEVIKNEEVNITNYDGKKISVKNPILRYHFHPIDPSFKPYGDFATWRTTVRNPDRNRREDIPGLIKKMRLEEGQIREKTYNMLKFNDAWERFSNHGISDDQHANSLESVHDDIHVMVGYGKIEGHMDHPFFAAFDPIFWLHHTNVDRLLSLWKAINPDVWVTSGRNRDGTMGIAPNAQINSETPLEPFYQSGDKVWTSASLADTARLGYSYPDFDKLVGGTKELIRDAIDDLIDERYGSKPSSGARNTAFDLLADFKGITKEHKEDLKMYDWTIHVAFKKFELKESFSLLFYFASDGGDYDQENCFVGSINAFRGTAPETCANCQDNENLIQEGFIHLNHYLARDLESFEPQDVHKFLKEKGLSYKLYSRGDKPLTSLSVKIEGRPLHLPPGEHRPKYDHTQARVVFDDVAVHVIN
pIC50: −log10 of the molar value.
test_readout: pIC50

Here's what some known entries look like.
1) COc1ccc(C(C)=O)cc1-c1cc(OC)c(O)c(OC)c1: 3.85
2) COc1cc(-c2ccccc2C)cc(OC)c1OC: < 2.70
3) COc1cc(-c2ccc(C=O)c(O)c2)cc(OC)c1OC: < 2.70
4) COc1cc(-c2ccc(C(=O)NCc3ccccc3)c(OCc3ccccc3)c2)cc(OC)c1OC: < 2.70
5) COc1cc(-c2cc(F)cc(F)c2)cc(OC)c1OC: < 2.70

Now examine the next entry.
// query For the compound COc1cc(-c2ccc(C)c(O)c2)cc(OC)c1OC , what pIC50 is on record?
// result < 2.70
